# maps each entry to its IC50
- target system: PE-labeled human PD-L1-Ig binding to Jurkat cell line over-expressing human PD-1 (Jurkat-PD-1) (Homo sapiens, UniProt Q15116)
- Construct: expressed in transfected cells; host or cells: Jurkat
- Sequence (Q15116 25-288): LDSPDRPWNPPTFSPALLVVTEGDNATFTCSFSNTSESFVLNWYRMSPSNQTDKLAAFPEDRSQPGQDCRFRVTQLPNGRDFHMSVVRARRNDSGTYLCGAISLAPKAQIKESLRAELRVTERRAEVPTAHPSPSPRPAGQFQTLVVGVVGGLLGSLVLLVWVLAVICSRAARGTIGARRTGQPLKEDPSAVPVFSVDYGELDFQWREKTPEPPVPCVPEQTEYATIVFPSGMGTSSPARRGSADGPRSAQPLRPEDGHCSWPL
- method notes: Jurkat-PD-1 Cell Binding High-Content Screening Assay (CBA): Method 1
- condition details: Jurkat-hPD-1 cells, PE-labeled PD-L1-Ig 20 nM final; read-out: Jurkat HPDL1 PD1 IC50 (uM) (Method 1)
Bridge positions count the residues as written; N and C are the ends. Square brackets hold non-standard residues; d marks the D form. Peptide text beside a SMILES is read from it. Bip = N[C@@H](Cc1ccc(-c2ccccc2)cc1)C(=O)O; Phe(3-Me) = Cc1cccc(C[C@H](N)C(=O)O)c1; hPhe = N[C@@H](CCc1ccccc1)C(=O)O; Cit = NC(=O)NCCC[C@H](N)C(=O)O; NMeA = CN[C@@H](C)C(=O)O; Dab = NCC[C@H](N)C(=O)O

{"molecule": "CC(C)C[C@@H]1NC(=O)[C@H](CCN)NC(=O)[C@@H](CC(C)C)NC(=O)[C@H](C)N(C)C(=O)[C@H](CCCNC(=N)N)NC(=O)[C@H](Cc2ccc(-c3ccccc3)cc2)NC(=O)[C@H](C(C)C)NC(=O)[C@H](Cc2c[nH]c3ccccc23)NC(=O)[C@H](CC(=O)O)NC(=O)[C@H](CCc2ccccc2)NC(=O)[C@H](CC(N)=O)NC(=O)CSC[C@@H](C(=O)N[C@@H](C)C(N)=O)NC(=O)[C@H]([C@@H](C)O)NC(=O)[C@H](C(C)C)NC1=O [Compound 1353] ({CH2CO}-N[hPhe]DWV[Bip]R[NMeA][dL][Dab]LVTCA-NH2; thioether N-14)", "IC50 [µM]": 0.03}
{"molecule": "CC(C)C[C@@H]1NC(=O)[C@H](CCCNC(=N)N)NC(=O)[C@@H](Cc2ccccc2)NC(=O)[C@H](C)N(C)C(=O)[C@H](CCCNC(=N)N)NC(=O)[C@H](Cc2ccc(-c3ccccc3)cc2)NC(=O)[C@H](C(C)C)NC(=O)[C@H](Cc2c[nH]c3ccccc23)NC(=O)[C@H](CC(=O)O)NC(=O)[C@H](Cc2ccc(O)cc2)NC(=O)[C@H](CCC(N)=O)NC(=O)CSC[C@@H](C(=O)N[C@@H](C)C(N)=O)NC(=O)[C@H](CO)NC(=O)[C@H](C(C)C)NC1=O [Compound 1043] ({CH2CO}-QYDWV[Bip]R[NMeA][dF]RLVSCA-NH2; thioether N-14)", "IC50 [µM]": 0.17}
{"molecule": "CC(C)C[C@@H]1NC(=O)[C@H](CCN)NC(=O)[C@@H](CC(C)C)NC(=O)[C@H](C)N(C)C(=O)[C@H](CCCNC(=N)N)NC(=O)[C@H](Cc2ccc(-c3ccccc3)cc2)NC(=O)[C@H](C(C)C)NC(=O)[C@H](Cc2c[nH]c3ccccc23)NC(=O)[C@H](CC(=O)O)NC(=O)[C@H](Cc2ccc(O)cc2)NC(=O)[C@H](CC(N)=O)NC(=O)CSC[C@@H](C(=O)N[C@@H](C)C(N)=O)NC(=O)[C@H]([C@@H](C)O)NC(=O)[C@H](C(C)C)NC1=O [Compound 1038] ({CH2CO}-NYDWV[Bip]R[NMeA][dL][Dab]LVTCA-NH2; thioether N-14)", "IC50 [µM]": 0.13}
{"molecule": "CC(C)C[C@@H]1NC(=O)[C@H](CCN)NC(=O)[C@@H](CC(C)C)NC(=O)[C@H](C)N(C)C(=O)[C@H](CC(N)=O)NC(=O)[C@H](Cc2ccc(-c3ccccc3)cc2)NC(=O)[C@H](C(C)C)NC(=O)[C@H](Cc2c[nH]c3ccccc23)NC(=O)[C@H](CC(=O)O)NC(=O)[C@H](Cc2ccc(O)cc2)NC(=O)[C@H](CC(N)=O)NC(=O)CSC[C@@H](C(=O)N[C@@H](C)C(N)=O)NC(=O)[C@H]([C@@H](C)O)NC(=O)[C@H](C(C)C)NC1=O [Compound 1259] ({CH2CO}-NYDWV[Bip]N[NMeA][dL][Dab]LVTCA-NH2; thioether N-14)", "IC50 [µM]": 0.11}
{"molecule": "Cc1cccc(C[C@@H]2NC(=O)[C@H](CC(=O)O)NC(=O)[C@H](Cc3ccc(O)cc3)NC(=O)[C@H](Cc3ccccc3)NC(=O)CSC[C@@H](C(=O)NCC(N)=O)NC(=O)[C@H](CO)NC(=O)[C@H](C(C)C)NC(=O)[C@H](CC(C)C)NC(=O)[C@H](CC(N)=O)NC(=O)[C@@H](CC(C)C)NC(=O)[C@H](C)N(C)C(=O)[C@H](C(C)C)NC(=O)[C@H](Cc3ccc(-c4ccccc4)cc3)NC(=O)[C@H](CC(C)C)NC2=O)c1 [Compound 1517] ({CH2CO}-FYD[Phe(3-Me)]L[Bip]V[NMeA][dL]NLVSCG-NH2; thioether N-14)", "IC50 [µM]": 0.02}
{"molecule": "CC(C)C[C@@H]1NC(=O)[C@H](CCCCN)NC(=O)[C@@H](CC(C)C)NC(=O)[C@H](C)N(C)C(=O)[C@H](CCCNC(N)=O)NC(=O)[C@H](Cc2ccc(-c3ccccc3)cc2)NC(=O)[C@H](C(C)C)NC(=O)[C@H](Cc2c[nH]c3ccccc23)NC(=O)[C@H](CC(=O)O)NC(=O)[C@H](Cc2ccc(O)cc2)NC(=O)[C@H](CC(N)=O)NC(=O)CSC[C@@H](C(=O)NCC(N)=O)NC(=O)[C@H](CO)NC(=O)[C@H](C(C)C)NC1=O [Compound 1474] ({CH2CO}-NYDWV[Bip][Cit][NMeA][dL]KLVSCG-NH2; thioether N-14)", "IC50 [µM]": 0.08}
{"molecule": "CC(C)C[C@@H]1NC(=O)[C@H](CCCNC(=N)N)NC(=O)[C@@H](CC(C)C)NC(=O)[C@H](C)N(C)C(=O)[C@H](CCCNC(=N)N)NC(=O)[C@H](Cc2ccc(-c3ccccc3)cc2)NC(=O)[C@H](C(C)C)NC(=O)[C@H](Cc2c[nH]c3ccccc23)NC(=O)[C@H](CC(=O)O)NC(=O)[C@H](Cc2ccc(O)cc2)NC(=O)[C@H](CCC(N)=O)NC(=O)CSC[C@@H](C(=O)N[C@@H](C)C(N)=O)NC(=O)[C@H](CO)NC(=O)[C@H](C(C)C)NC1=O [Compound 1029] ({CH2CO}-QYDWV[Bip]R[NMeA][dL]RLVSCA-NH2; thioether N-14)", "IC50 [µM]": 0.04}
{"molecule": "CC(C)C[C@@H]1NC(=O)[C@H](Cc2c[nH]c3ccccc23)NC(=O)[C@H](CC(=O)O)NC(=O)[C@H](Cc2ccc(O)cc2)NC(=O)[C@H](Cc2cnc[nH]2)NC(=O)CSC[C@@H](C(=O)NCC(N)=O)NC(=O)[C@H](CO)NC(=O)[C@H](C(C)C)NC(=O)[C@H](CC(C)C)NC(=O)[C@H](CC(N)=O)NC(=O)[C@H](CC(N)=O)NC(=O)[C@H](C)N(C)C(=O)[C@H](C(C)C)NC(=O)[C@H](Cc2ccc(-c3ccccc3)cc2)NC1=O [Compound 1808] ({CH2CO}-HYDWL[Bip]V[NMeA]NNLVSCG-NH2; thioether N-14)", "IC50 [µM]": 0.86}

====

- target system: PE-labeled human PD-L1-Ig binding to Jurkat cell line over-expressing human PD-1 (Jurkat-PD-1) (Homo sapiens)
- Construct: expressed in transfected cells; host or cells: Jurkat
- method notes: Jurkat-PD-1 Cell Binding High-Content Screening Assay (CBA): Method 1
- condition details: Jurkat-hPD-1 cells, PE-labeled PD-L1-Ig 20 nM final; read-out: Jurkat HPDL1 PD1 IC50 (uM) (Method 1)
Bridge positions count the residues as written; N and C are the ends. Square brackets hold non-standard residues; d marks the D form. Peptide text beside a SMILES is read from it. Bip = N[C@@H](Cc1ccc(-c2ccccc2)cc1)C(=O)O; NMeA = CN[C@@H](C)C(=O)O; Orn = NCCC[C@H](N)C(=O)O
endpoint name: IC50 (µM)

{"compound": "CC(C)C[C@@H]1NC(=O)[C@H](Cc2c[nH]c3ccccc23)NC(=O)[C@H](CC(=O)O)NC(=O)[C@H](Cc2ccc(O)cc2)NC(=O)[C@H](Cc2ccccc2)NC(=O)CSC[C@@H](C(=O)N[C@@H](C)C(N)=O)NC(=O)[C@H]([C@@H](C)O)NC(=O)[C@H](CCCCN)NC(=O)[C@H](CC(C)C)NC(=O)[C@H](CC(N)=O)NC(=O)[C@@H](C)NC(=O)[C@H](C)N(C)C(=O)[C@H](C(C)C)NC(=O)[C@H](Cc2ccc(-c3ccccc3)cc2)NC1=O [Compound 1766] ({CH2CO}-FYDWL[Bip]V[NMeA][dA]NLKTCA-NH2; thioether N-14)", "endpoint name": "IC50", "endpoint unit": "µM", "numeric value": 0.04}
{"compound": "CC(C)C[C@@H]1NC(=O)[C@H](CCCN)NC(=O)[C@@H](CC(C)C)NC(=O)[C@H](C)N(C)C(=O)[C@H](CCCNC(=N)N)NC(=O)[C@H](Cc2ccc(-c3ccccc3)cc2)NC(=O)[C@H](C(C)C)NC(=O)[C@H](Cc2c[nH]c3ccccc23)NC(=O)[C@H](CC(=O)O)NC(=O)[C@H](Cc2ccc(O)cc2)NC(=O)[C@H](CC(N)=O)NC(=O)CSC[C@@H](C(=O)N[C@@H](CO)C(N)=O)NC(=O)[C@H]([C@@H](C)O)NC(=O)[C@H](C(C)C)NC1=O [Compound 1177] ({CH2CO}-NYDWV[Bip]R[NMeA][dL][Orn]LVTCS-NH2; thioether N-14)", "endpoint name": "IC50", "endpoint unit": "µM", "numeric value": 0.12}

Numbers sourced from patent US20240409585A1.
